From: DBAASP

Please consider the recorded MIC for Streptococcus pyogenes ATCC 19615 in what follows.

Consider the reported MIC for these molecules:
item.smiles	study.system	MIC
CSCC[C@H](NC(=O)CNC(=O)[C@H](CCC(N)=O)NC(=O)[C@H](C)NC(=O)[C@H](CCCN=C(N)N)NC(=O)CNC(=O)[C@H](C)NC(=O)[C@@H](NC(=O)[C@@H](N)CO)C(C)C)C(N)=O	Streptococcus pyogenes ATCC 19615	≥ 36 µM
CC(C)[C@H](NC(=O)CNC(=O)[C@H](CCCN=C(N)N)NC(=O)[C@H](Cc1cnc[nH]1)NC(=O)[C@H](Cc1c[nH]c2ccccc12)NC(=O)[C@H](Cc1ccccc1)NC(=O)[C@H](Cc1cnc[nH]1)NC(=O)[C@H](Cc1ccc(O)cc1)NC(=O)[C@@H](N)Cc1ccc(O)cc1)C(=O)N[C@H](C(=O)N[C@@H](CCCCN)C(=O)N[C@@H](CCCN=C(N)N)C(=O)O)[C@@H](C)O	Streptococcus pyogenes ATCC 19615	≥ 70 µM
NCCCC[C@H](NC(=O)[C@@H](N)CCCCN)C(=O)N[C@@H](Cc1ccccc1)C(=O)N[C@@H](Cc1c[nH]c2ccccc12)C(=O)N[C@@H](CCC(=O)O)C(=O)N[C@@H](CC(=O)O)C(=O)N[C@@H](CC(=O)O)C(=O)NCC(N)=O	Streptococcus pyogenes ATCC 19615	≥ 125 µM
CC[C@H](C)[C@H](N)C(=O)N[C@@H](CC(C)C)C(=O)N[C@@H](C)C(=O)N[C@@H](Cc1c[nH]c2ccccc12)C(=O)N[C@@H](CCCCN)C(=O)N[C@@H](Cc1c[nH]c2ccccc12)C(=O)N[C@@H](C)C(=O)N[C@@H](Cc1c[nH]c2ccccc12)C(=O)N[C@@H](Cc1c[nH]c2ccccc12)C(=O)N[C@@H](C)C(=O)N[C@@H](Cc1c[nH]c2ccccc12)C(=O)N[C@@H](CCCN=C(N)N)C(=O)N[C@@H](CCCN=C(N)N)C(N)=O	Streptococcus pyogenes ATCC 19615	0.547 µM

Consider the record given below.
Request: MIC, test system Streptococcus pyogenes ATCC 19615, entry CC(C)C[C@H](NC(=O)[C@H](CC(C)C)NC(=O)[C@H](CC(=O)O)NC(=O)[C@H](CC(N)=O)NC(=O)[C@H](CC(C)C)NC(=O)[C@H](CC(C)C)NC(=O)[C@H](CC(N)=O)NC(=O)CNC(=O)[C@@H](NC(=O)[C@H](CC(C)C)NC(=O)[C@@H]1CCCN1C(=O)[C@H](CC(C)C)NC(=O)[C@@H](N)C(C)C)C(C)C)C(=O)NCC(=O)N[C@@H](CCCCN)C(=O)O
≥ 63.4 µM

====

test system: Pseudomonas aeruginosa; experiment: ≥ marks a high value that may be exact or a test limit, other limits are often not marked, values filed in µg/mL are converted to µM
endpoint: MIC (µM)
I only need the number, in µM, no unit after it.

Suppose we examine the molecule CC[C@H](C)[C@@H]1NC(=O)CNC(=O)[C@H](CCCN=C(N)N)NC(=O)[C@H](Cc2ccc(O)cc2)NC(=O)[C@@H]2CSSC[C@H](NC1=O)C(=O)N[C@@H](Cc1ccc(O)cc1)C(=O)N[C@@H](C)C(=O)N[C@@H](CCCN=C(N)N)C(=O)N[C@H](C(=O)N[C@@H](CCCN=C(N)N)C(=O)O)CSSC[C@H](NC(=O)[C@H](Cc1c[nH]c3ccccc13)NC(=O)[C@@H](N)CCCCN)C(=O)N[C@@H](Cc1ccccc1)C(=O)N[C@@H](CCCN=C(N)N)C(=O)N[C@@H](C(C)C)C(=O)N2 ; what MIC value has been reported?
0.115
